tested on: H1650 cells; test: CellTiterGlo (CTG) cell viability, 3D, 120 h, H1650 (Example 8); format: cell-based, human; settings: Homo sapiens, NCI-H1650, H1650 3D, experiment n1, read-out: H1650 3D CTG IC50 n1
measured.quantity: IC50 (nM)

[1] CCN(CC)CC#Cc1ccc(OCCCc2sc(N3CCCc4c3nnc(Nc3nc5ccccc5s3)c4C)nc2C(=O)O)c(F)c1 [P14]
[2] Cc1ccc2sc(Nc3nnc4c(c3C)CCCN4c3ccc(-c4cnn(C[C@]56C[C@]7(C)C[C@](C)(C5)C[C@@](OCCN5CCCC5)(C7)C6)c4C)c(C(=O)O)n3)nc2c1 [P42]
[3] Cc1c(Nc2nc3ccccc3s2)nnc2c1CCCN2c1ccc(-c2cnn(CC34CC5(C)CC(C)(C3)CC(OCCNCCCO)(C5)C4)c2C)c(C(=O)O)n1 [P25]
Qu. Order the 3 listed items from lowest to highest according to IC50. // ordering of labels required in reply
Ans. 1, 3, 2

[a] Cc1c(Nc2nc3ccccc3s2)nnc2c1CCCN2c1ccc(-c2cnn(CC34CC5(C)CC(C)(C3)CC(OCCN(C)CC(=O)O)(C5)C4)c2C)c(C(=O)O)n1 [P48]
[b] Cc1c(Nc2nc3ccccc3s2)nnc2c1CCCN2c1ccc(-c2cnn(C[C@]34C[C@]5(C)C[C@](C)(C3)C[C@@](OCCN3CCCCCC3)(C5)C4)c2C)c(C(=O)O)n1 [P33]
Qu. Form: Entry with minimum IC50 (choose one): a / b // output: label of the selected item
Ans. b

[I] Cc1ccc2nc(Nc3nnc4c(c3C)CCCN4c3ccc(-c4cnn(CC56CC7(C)CC(C)(C5)CC(OCCN5CCCC5)(C7)C6)c4C)c(C(=O)O)n3)sc2c1 [P64]
[II] Cc1c(Nc2nc3ccc(F)cc3s2)nnc2c1CCCN2c1ccc(-c2cnn(CC34CC5(C)CC(C)(C3)CC(OCCN3CCCC3)(C5)C4)c2C)c(C(=O)O)n1 [P65]
[III] CNCCOC1Cc2c(nnc(Nc3nc4ccccc4s3)c2C)N(c2nc(C(=O)O)c(CCCOc3ccc(C#CCN(C)C)cc3F)s2)C1 (stereo not drawn) [P16]
Qu. Arrange these 3 compounds in increasing order of IC50. // ordering of labels required in reply
Ans. II, I, III
